tested system: SYK (SYK(2-635)) (Homo sapiens (Human))
pIC50: −log10 of the molar value.
Where pIC50 equals or exceeds 8, the correct label is criterion met; where it does not, the label is criterion not met.

Cc1c[nH]c2c(Nc3nc(N[C@@H]4CCCC[C@@H]4N)cc4cn[nH]c(=O)c34)cc(F)cc12 [Example 2.4] :: criterion met
Cc1ccc2c(Nc3nc(N[C@@H]4CCCC[C@@H]4N)cc4cn[nH]c(=O)c34)cccc2n1 [Example 2.8] :: criterion met
N[C@H]1CCCC[C@H]1Nc1cc2cn[nH]c(=O)c2c(Nc2cccc3sccc23)n1 [Example 2.7] :: criterion met
N[C@H]1COCC[C@H]1Nc1cc2cn[nH]c(=O)c2c(Nc2cccc3sccc23)n1 [Example 3.2] :: criterion met
N[C@H]1COCC[C@H]1Nc1cc2cn[nH]c(=O)c2c(Nc2cccc3cc[nH]c23)n1 [Example 3.4] :: criterion not met

Could you tell me if the measured pIC50 of N[C@H]1CCCC[C@H]1Nc1cc2cn[nH]c(=O)c2c(Nc2cccc3cccnc23)n1 [Example 2.20] reaches 8 or more? criterion not met

Could you tell me if the measured pIC50 of Cn1cc2c(Nc3nc(N[C@@H]4CCCC[C@@H]4N)cc4cn[nH]c(=O)c34)cccc2n1 [Example 2.3] reaches 8 or more? criterion met

----------
Entries with reported pIC50 on SYK (SYK(2-635)) (Homo sapiens (Human))
Hey, just a heads up that pIC50 is the negative log base 10 of the concentration in molar.

Cc1c[nH]c2c(Nc3nc(N[C@@H]4CCOC[C@@H]4N)cc4cn[nH]c(=O)c34)cccc12 :: 8.05

Under SYK (SYK(2-635)) (Homo sapiens (Human)): pIC50 value of `Cc1ccc(Nc2nc(N[C@@H]3CCCC[C@@H]3N)cc3cn[nH]c(=O)c23)c2cccnc12` ? 8.15

Under SYK (SYK(2-635)) (Homo sapiens (Human)): pIC50 value of `Cc1ccc(Nc2nc(N[C@@H]3CCCC[C@@H]3N)cc3cn[nH]c(=O)c23)c2cc[nH]c12` ? 8.05

Source listed as patent US9315500B2.
